Provenance of the data: patent EP0081312A2

system: Escherichia coli 0111; assay: MIC, concentration required to inhibit growth of bacteria; type: cell-based
Classify: yes when MIC is strictly less than 0.8 µg/mL; no when MIC is not.

# example entries with known answers
INSERT INTO measurements (compound, class) VALUES
  ('CC(O)C1C(=O)N2C(C(=O)[O-])=C(S/C=C\C(N)=O)CC12.[Na+] (stereo not drawn)', 'no'),
  ('C[C@H](O)[C@@H]1C(=O)N2C(C(=O)O)=C(S/C=C\C(=O)N(C(=O)NC3CCCCC3)C3CCCCC3)C[C@H]12', 'no'),
  ('C[C@H](O)[C@@H]1C(=O)N2C(C(=O)[O-])=C(S/C=C\C(=O)NCc3ccccc3)C[C@H]12.[Na+]', 'yes'),
  ('C[C@@H](O)[C@H]1C(=O)N2C(C(=O)O)=C(S/C=C\C(=O)NCc3ccccc3)C[C@H]12', 'yes');

Shifting focus to the compound that follows.
Consider CC(O)C1C(=O)N2C(C(=O)[O-])=C(S/C=C/C(N)=O)CC12.[Na+] (stereo not drawn) . Does its MIC lie strictly below 0.8 µg/mL?
yes

###

Measured MIC by item
test system: Streptococcus pyogenes CN10; test: MIC, concentration required to inhibit growth of bacteria; format: cell-based
Give the value in µg/mL but do not write µg/mL after it.

INSERT INTO assay_data (molecule, endpoint, measurement_unit, numeric_readout) VALUES
  ('C[C@@H](OC=O)[C@H]1C(=O)N2C(C(=O)[O-])=C(S/C=C\C(=O)NCc3ccccc3)C[C@H]12.[Na+]', 'MIC', 'µg/mL', 0.8),
  ('CC(O)C1C(=O)N2C(C(=O)[O-])=C(S/C=C/C(N)=O)CC12.[Na+] (stereo not shown)', 'MIC', 'µg/mL', 0.2);

Now consider a different molecule.
Reported MIC, molecule CC(O)C1C(=O)N2C(C(=O)[O-])=C(S/C=C\C(N)=O)CC12.[Na+] (stereo not shown) : ____
3.1

###

tested on: Klebsiella aerogenes A; test: MIC, concentration required to inhibit growth of bacteria; format: cell-based; conditions: Klebsiella aerogenes
ENDPOINT: MIC (µg/mL)
Dear colleague, please return just the value in µg/mL, with no unit written.

INSERT INTO assay_data (molecule, measurement_target, measurement_unit, numeric_readout) VALUES
  ('C[C@@H](OC=O)[C@H]1C(=O)N2C(C(=O)[O-])=C(S/C=C\C(=O)NCc3ccccc3)C[C@H]12.[Na+] [Example 3]', 'Klebsiella aerogenes A', 'µg/mL', 0.4);

Any idea what MIC was measured for CC(O)C1C(=O)N2C(C(=O)[O-])=C(S/C=C/C(N)=O)CC12.[Na+] (stereo not shown) [Example 5] ?
1.6

Looking for the measured MIC of C[C@H](O)[C@@H]1C(=O)N2C(C(=O)[O-])=C(S/C=C\C(=O)NCc3ccccc3)C[C@H]12.[Na+] [Example 2] , can you help?
0.2

Quick one: MIC of CC(O)C1C(=O)N2C(C(=O)[O-])=C(S/C=C\C(N)=O)CC12.[Na+] (stereo not shown) [Example 6] ?
6.2

###

tested on: Proteus rettgeri WM16; assay: MIC, concentration required to inhibit growth of bacteria; type: cell-based; details: Providencia rettgeri, WM16
# MIC per record follows
Give the quantity in µg/mL, number only.

Use the examples below as a reference point.
INSERT INTO measurements (molecule, endpoint, numeric_readout) VALUES
  ('C[C@H](O)[C@@H]1C(=O)N2C(C(=O)[O-])=C(S/C=C\C(=O)NCc3ccccc3)C[C@H]12.[Na+]', 'MIC', 0.4),
  ('CC(O)C1C(=O)N2C(C(=O)[O-])=C(S/C=C/C(N)=O)CC12.[Na+] (stereo not shown)', 'MIC', 6.2),
  ('C[C@@H](OC=O)[C@H]1C(=O)N2C(C(=O)[O-])=C(S/C=C\C(=O)NCc3ccccc3)C[C@H]12.[Na+]', 'MIC', 3.1);

Query (molecule): CC(O)C1C(=O)N2C(C(=O)[O-])=C(S/C=C\C(N)=O)CC12.[Na+] (stereo not shown) ; field requested: MIC
50

###

tested on: Enterobacter cloacae N1; test: MIC, concentration required to inhibit growth of bacteria; assay type: cell-based
Reported MIC values follow for various compounds
Value expressed in µg/mL; do not type the unit.

INSERT INTO results (compound, numeric_readout) VALUES
  ('C[C@@H](OC=O)[C@H]1C(=O)N2C(C(=O)[O-])=C(S/C=C\C(=O)NCc3ccccc3)C[C@H]12.[Na+]', 3.1);

What does the record list as MIC for CC(O)C1C(=O)N2C(C(=O)[O-])=C(S/C=C\C(N)=O)CC12.[Na+] (stereo not shown) ?
25

Consider the compound shown here: CC(O)C1C(=O)N2C(C(=O)[O-])=C(S/C=C/C(N)=O)CC12.[Na+] (stereo not shown) What is its recorded MIC?
1.6

Find the recorded MIC belonging to `C[C@H](O)[C@@H]1C(=O)N2C(C(=O)[O-])=C(S/C=C\C(=O)NCc3ccccc3)C[C@H]12.[Na+]` and report it.
0.2
